- System: Streptococcus pneumoniae D39
- experiment-description: Antagonist activity at ComD1 receptor in Streptococcus pneumoniae D39 harboring pcomX/lacZ reporter gene assessed as inhibiton of CSP1-stimulated maximum signal at 10 uM preincubated for 30 mins followed by 50 nM CSP1 addition by ONPG based beta-galactosidase assay relative to native CSP1
Active and inactive are the calls of the source. No cut-off for these calls is given here. Non-standard residues stand in square brackets, D forms with d. Residues, ends and D or L forms follow the SMILES beside them. NMeR = CN[C@@H](CCCNC(=N)N)C(=O)O; NMeD = CN[C@@H](CC(=O)O)C(=O)O; NMeL = CN[C@@H](CC(C)C)C(=O)O

compound	inhibition
CC[C@H](C)[C@H](NC(=O)[C@H](CCCNC(=N)N)NC(=O)[C@H](CCSC)NC(=O)[C@@H](N)CCC(=O)O)C(=O)N[C@@H](CO)C(=O)N[C@@H](CCCNC(=N)N)C(=O)N[C@H](C(=O)N[C@H](C(=O)N[C@@H](CC(C)C)C(=O)N(C)[C@@H](CC(=O)O)C(=O)N[C@@H](Cc1ccccc1)C(=O)N[C@@H](CC(C)C)C(=O)N[C@@H](Cc1ccccc1)C(=O)O)[C@@H](C)CC)[C@@H](C)CC (H-EMRISRIIL[NMeD]FLF-OH)	inactive
CC[C@H](C)[C@H](NC(=O)[C@H](CCCNC(=N)N)NC(=O)[C@H](CCSC)NC(=O)[C@@H](N)CCC(=O)O)C(=O)N[C@@H](CO)C(=O)N[C@@H](CCCNC(=N)N)C(=O)N[C@H](C(=O)N[C@H](C(=O)N(C)[C@@H](CC(C)C)C(=O)N[C@@H](CC(=O)O)C(=O)N[C@@H](Cc1ccccc1)C(=O)N[C@@H](CC(C)C)C(=O)N[C@@H](Cc1ccccc1)C(=O)O)[C@@H](C)CC)[C@@H](C)CC (H-EMRISRII[NMeL]DFLF-OH)	inactive
CC[C@H](C)[C@H](NC(=O)[C@H](CCCNC(=N)N)NC(=O)[C@H](CO)NC(=O)[C@@H](NC(=O)[C@H](CCCNC(=N)N)N(C)C(=O)[C@H](CCSC)NC(=O)[C@@H](N)CCC(=O)O)[C@@H](C)CC)C(=O)N[C@H](C(=O)N[C@@H](CC(C)C)C(=O)N[C@@H](CC(=O)O)C(=O)N[C@@H](Cc1ccccc1)C(=O)N[C@@H](CC(C)C)C(=O)N[C@@H](Cc1ccccc1)C(=O)O)[C@@H](C)CC (H-EM[NMeR]ISRIILDFLF-OH)	inactive

###

- Tested on: Streptococcus pneumoniae D39
- experiment-description: Agonist activity at ComD1 receptor in Streptococcus pneumoniae D39 harboring pcomX/lacZ reporter gene at 10 uM incubated for 30 mins by ONPG based beta-galactosidase assay relative to native CSP1
The source made the active and inactive calls. No cut-off for these calls is given here. Non-standard residues stand in square brackets, D forms with d. Residues, ends and D or L forms follow the SMILES beside them. NMeF = CN[C@@H](Cc1ccccc1)C(=O)O; NMeL = CN[C@@H](CC(C)C)C(=O)O; NMeS = CN[C@@H](CO)C(=O)O
metric-name: Activity

Some molecules with recorded Activity:
molecule	Activity
CC[C@H](C)[C@H](NC(=O)[C@H](CCCNC(=N)N)NC(=O)[C@H](CCSC)NC(=O)[C@@H](N)CCC(=O)O)C(=O)N[C@@H](CO)C(=O)N[C@@H](CCCNC(=N)N)C(=O)N[C@H](C(=O)N[C@H](C(=O)N[C@@H](CC(C)C)C(=O)N[C@@H](CC(=O)O)C(=O)N(C)[C@@H](Cc1ccccc1)C(=O)N[C@@H](CC(C)C)C(=O)N[C@@H](Cc1ccccc1)C(=O)O)[C@@H](C)CC)[C@@H](C)CC (H-EMRISRIILD[NMeF]LF-OH)	inactive
CC[C@H](C)[C@H](NC(=O)[C@H](Cc1ccccc1)NC(=O)[C@H](CC(=O)O)NC(=O)[C@H](CCCNC(=N)N)NC(=O)[C@H](Cc1ccccc1)NC(=O)[C@H](Cc1ccccc1)NC(=O)[C@H](CCCCN)NC(=O)[C@H](CO)NC(=O)[C@H](CC(C)C)NC(=O)[C@H](CCCNC(=N)N)NC(=O)[C@H](CCSC)NC(=O)[C@@H](N)CCC(=O)O)C(=O)N(C)[C@@H](CC(C)C)C(=O)N[C@@H](CCC(N)=O)C(=O)N[C@@H](CCCNC(=N)N)C(=O)O (H-EMRLSKFFRDFI[NMeL]QR-OH)	inactive
CC[C@H](C)[C@H](NC(=O)[C@H](Cc1ccccc1)NC(=O)[C@H](CC(=O)O)NC(=O)[C@H](CCCNC(=N)N)NC(=O)[C@H](Cc1ccccc1)NC(=O)[C@H](Cc1ccccc1)NC(=O)[C@H](CCCCN)NC(=O)[C@H](CO)NC(=O)[C@H](CC(C)C)N(C)C(=O)[C@H](CCCNC(=N)N)NC(=O)[C@H](CCSC)NC(=O)[C@@H](N)CCC(=O)O)C(=O)N[C@@H](CC(C)C)C(=O)N[C@@H](CCC(N)=O)C(=O)N[C@@H](CCCNC(=N)N)C(=O)O (H-EMR[NMeL]SKFFRDFILQR-OH)	> 75%
CC[C@H](C)[C@H](NC(=O)[C@H](CCCNC(=N)N)NC(=O)[C@H](CCSC)NC(=O)[C@@H](N)CCC(=O)O)C(=O)N[C@@H](CO)C(=O)N[C@@H](CCCNC(=N)N)C(=O)N[C@H](C(=O)N[C@H](C(=O)N[C@@H](CC(C)C)C(=O)N[C@@H](CC(=O)O)C(=O)N[C@@H](Cc1ccccc1)C(=O)N[C@@H](CC(C)C)C(=O)N(C)[C@@H](Cc1ccccc1)C(=O)O)[C@@H](C)CC)[C@@H](C)CC (H-EMRISRIILDFL[NMeF]-OH)	inactive

Could you now consider this next molecule?
Give the measured Activity of CC[C@H](C)[C@H](NC(=O)[C@H](CCCNC(=N)N)NC(=O)[C@H](CO)N(C)C(=O)[C@@H](NC(=O)[C@H](CCCNC(=N)N)NC(=O)[C@H](CCSC)NC(=O)[C@@H](N)CCC(=O)O)[C@@H](C)CC)C(=O)N[C@H](C(=O)N[C@@H](CC(C)C)C(=O)N[C@@H](CC(=O)O)C(=O)N[C@@H](Cc1ccccc1)C(=O)N[C@@H](CC(C)C)C(=O)N[C@@H](Cc1ccccc1)C(=O)O)[C@@H](C)CC (H-EMRI[NMeS]RIILDFLF-OH) .
inactive
